I'd appreciate it if you could supply pIC50 values for the items below.
# Tested on: 317291-083-R-J1-PDC complex spheroids, viability;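 also: spheroids exposed to compounds for one week before readout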
# protocol description: Anticancer human tumor 317291-083-R-J1-PDC patient-derived soft tissue sarcoma cell line growth inhibition [GQUAD]
# test conditions: curve of first compound; second compound 0.0316 µM
Convention used: pIC50 is expressed as -log10 of the molar concentration.

Req: Give me measured pIC50, please, for this molecule: CC1COCCN1c1cc(-c2ccnn2C)c2ccnc(-c3ccn[nH]3)c2n1 (stereo not given) + CN(C)c1ccc(Nc2c3ccc(NC(=O)CCN4CCCC4)cc3nc3cc(NC(=O)CCN4CCCC4)ccc23)cc1
Resp: 7.19

Req: Give me measured pIC50, please, for this molecule: O=C(NO)c1cnc(N2CCN(S(=O)(=O)c3ccc4ccccc4c3)CC2)nc1 + CN(C)c1ccc(Nc2c3ccc(NC(=O)CCN4CCCC4)cc3nc3cc(NC(=O)CCN4CCCC4)ccc23)cc1
Resp: 6.92

Req: Give me measured pIC50, please, for this molecule: O=c1[nH]cc(F)c(=O)[nH]1 + CN(C)c1ccc(Nc2c3ccc(NC(=O)CCN4CCCC4)cc3nc3cc(NC(=O)CCN4CCCC4)ccc23)cc1
Resp: 5.63

The reported numbers originate from PubChem BioAssay AID2060497.
